- Test system: HOP-62 NSCLC
- experimentalDetails: NCI tumour cell line growth inhibition, 48 h
reportedProperty: GI50

# annotated cases, reported GI50 shown
COC(=O)c1c(C)c2n(c1C)C(=O)C(c1ccccc1)=C2 ... 67.1 µM
C/C(=N\[N+](C)(C)C)c1ccc(C)c(C)c1 ... > 100 µM
COc1ccc(OC)c(/C=C/C(=O)N/N=C/c2ccccc2)c1 ... 4.95 µM
CCN(Cc1ccccn1)c1ccc(CO)c(Cl)c1 ... 46.1 µM

Please provide the recorded GI50 for "O=S(=O)(Nc1ccc(Cl)c(F)c1)c1ccc(-c2cnc(C3CC3)o2)cc1" , tested on HOP-62 NSCLC. 0.579 µM

Also, "O=C1CCC/C=C\C[C@H]2C=CC(=O)/C2=C/C[C@H](CCc2cccc(C(F)(F)F)c2)O1" please. 2.84 µM

Now consider "Nc1cc(N)c2nc(-c3ccccc3)c(NCCc3ccc(Cl)c(Cl)c3)nc2c1" and answer again. 3.92 µM

Input "CCn1nc(-c2ccc(C(=O)OC)cc2)nc2c(=O)n(C)c(=O)nc1-2" 1.07 µM

Continue with "COC(=O)C1=C(C(=O)OC)SC(=C(Cl)C(=S)Oc2ccccc2N)S1" 20.1 µM

And then "O=C1OCC(C#Cc2ccccc2)=C1Br" , what is it? 13.2 µM

Try CCCC(=O)OCC1OC(n2cnc3c(=S)nc(N)[nH]c32)C(OC(=O)CCC)C1OC(=O)CCC (configuration not stated) next. 2.05 µM

Please answer likewise for "COc1cc(-c2nn(-c3ccc(NC(=O)NCCNS(=O)(=O)c4ccc(F)cc4)cc3)cc2-c2ccncc2)ccc1Cl" 0.544 µM
